- study-target: NR2F6 (Homo sapiens, UniProt P10588)
- Construct: expressed in transfected cells; also transient transfection
- Sequence (P10588 whole entry): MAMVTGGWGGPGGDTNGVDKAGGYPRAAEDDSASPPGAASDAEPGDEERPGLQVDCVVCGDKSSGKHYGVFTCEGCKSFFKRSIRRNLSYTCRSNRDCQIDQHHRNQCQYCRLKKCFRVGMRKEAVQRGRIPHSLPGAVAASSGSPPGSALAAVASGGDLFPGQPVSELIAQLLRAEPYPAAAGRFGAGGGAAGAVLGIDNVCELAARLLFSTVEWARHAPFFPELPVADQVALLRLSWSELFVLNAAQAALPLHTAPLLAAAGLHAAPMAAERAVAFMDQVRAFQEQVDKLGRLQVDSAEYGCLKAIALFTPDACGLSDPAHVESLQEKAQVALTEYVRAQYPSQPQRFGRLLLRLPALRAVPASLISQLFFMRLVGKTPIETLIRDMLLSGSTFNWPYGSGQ
- experiment-summary: NR2F6 agonist screening, Firefly signal cmpd/DMSO
- Type: cell-based
- assay-context: C11 analogs follow set (Tables 2-10), repeat 1
Provide the recorded Firefly, cmpd/DMSO repeat 1 for the entries that follow.
Just the number, please, no unit after it.

[Q] Observed Firefly, cmpd/DMSO repeat 1 on NR2F6 (Homo sapiens, UniProt P10588) for `Cc1ccc(S(=O)(=O)c2cc3cc(C(=O)NCCc4ccccc4)ccc3oc2=O)cc1` , please.
[A] 11.7

[Q] Observed Firefly, cmpd/DMSO repeat 1 on NR2F6 (Homo sapiens, UniProt P10588) for `O=c1oc2cc(O)ccc2cc1S(=O)(=O)c1ccccc1` , please.
[A] 2.0

[Q] Observed Firefly, cmpd/DMSO repeat 1 on NR2F6 (Homo sapiens, UniProt P10588) for `COc1ccc2cc(S(=O)(=O)c3ccc(OC)c(OC)c3)c(=O)oc2c1` , please.
[A] 3.3

[Q] Observed Firefly, cmpd/DMSO repeat 1 on NR2F6 (Homo sapiens, UniProt P10588) for `Cc1ccc(S(=O)(=O)c2cc3cc([N+](=O)[O-])ccc3oc2=O)cc1` , please.
[A] 5.8

---

- Tested on: Renilla_ERa
- experiment-summary: Renilla signal in ERα counterscreen (Renilla_ERa)
- Format: cell-based
- assay-context: 10 uM; read-out: Renilla ERalpha transient, cmpd/DMSO (mean)
property-name: fold induction at 10 µM
Just the number, please, no unit after it.

[Q] Observed fold induction at 10 µM on Renilla_ERa for O=c1cccc2n1CC1CC2CN(c2nc(N3CCCC3)nc(N3CCCC3)n2)C1 (stereo not shown) , please.
[A] 1

[Q] Observed fold induction at 10 µM on Renilla_ERa for O=c1cccc2n1CC1CC2CN(c2nc(NCCC3=CCCCC3)nc(N3CCOCC3)n2)C1 (stereo not shown) , please.
[A] 1.2

[Q] Observed fold induction at 10 µM on Renilla_ERa for COc1ccc(-c2cc3n(n2)C(N)=C(C#N)C(c2c[nH]c4ccccc24)(C(F)(F)F)N3)cc1OC (stereo not shown) , please.
[A] 0.9

[Q] Observed fold induction at 10 µM on Renilla_ERa for `COc1ccc2nc(C(F)(F)F)c(C#N)c(NCCOc3ccc(Cl)cc3)c2c1` , please.
[A] 0.7

---

- study-target: NR2F6 (Homo sapiens)
- Construct: expressed in transfected cells; also transient transfection
- experiment-summary: NR2F6 agonist screening, Firefly signal cmpd/DMSO
- Type: cell-based
- assay-context: 10 uM; F4
property-name: Firefly F4, cmpd/DMSO (mean)
Just the number, please, no unit after it.

[Q] For the compound shown here, O=S1(=O)C[C@H](N2CCCC2)[C@@H](S(=O)(=O)c2cccs2)C1 [Compound D104] , give the reported Firefly F4, cmpd/DMSO (mean).
[A] 6.2

[Q] For the compound shown here, O=S1(=O)C[C@H](NC2CCCCC2)[C@@H](S(=O)(=O)c2ccccc2)C1 [Compound D111] , give the reported Firefly F4, cmpd/DMSO (mean).
[A] 2.0

[Q] For the compound shown here, COCCCN[C@H]1CS(=O)(=O)C[C@@H]1S(=O)(=O)c1ccc(Cl)cc1 [Compound D126] , give the reported Firefly F4, cmpd/DMSO (mean).
[A] 4.5

[Q] For the compound shown here, CCCCN[C@H]1CS(=O)(=O)C[C@@H]1S(=O)(=O)c1ccc(Cl)cc1 [Compound D119] , give the reported Firefly F4, cmpd/DMSO (mean).
[A] 5.3

[Q] For the compound shown here, O=S1(=O)C[C@H](NC2CCCCC2)[C@@H](S(=O)(=O)c2ccc(Cl)cc2)C1 [Compound D124] , give the reported Firefly F4, cmpd/DMSO (mean).
[A] 4.6

[Q] For the compound shown here, CC(C)N[C@H]1CS(=O)(=O)C[C@@H]1S(=O)(=O)c1ccc(Cl)cc1 [Compound D118] , give the reported Firefly F4, cmpd/DMSO (mean).
[A] 6.2

[Q] For the compound shown here, CCC(C)N[C@H]1CS(=O)(=O)C[C@@H]1S(=O)(=O)c1ccc(C)cc1 (some centres unmarked) [Compound D113] , give the reported Firefly F4, cmpd/DMSO (mean).
[A] 2.8

[Q] For the compound shown here, COCCN[C@H]1CS(=O)(=O)C[C@@H]1S(=O)(=O)c1cccs1 [Compound D107] , give the reported Firefly F4, cmpd/DMSO (mean).
[A] 2.2
